Biological target: Serine/threonine-protein kinase Chk1 (Homo sapiens, UniProt O14757)
Sequence (O14757 whole entry): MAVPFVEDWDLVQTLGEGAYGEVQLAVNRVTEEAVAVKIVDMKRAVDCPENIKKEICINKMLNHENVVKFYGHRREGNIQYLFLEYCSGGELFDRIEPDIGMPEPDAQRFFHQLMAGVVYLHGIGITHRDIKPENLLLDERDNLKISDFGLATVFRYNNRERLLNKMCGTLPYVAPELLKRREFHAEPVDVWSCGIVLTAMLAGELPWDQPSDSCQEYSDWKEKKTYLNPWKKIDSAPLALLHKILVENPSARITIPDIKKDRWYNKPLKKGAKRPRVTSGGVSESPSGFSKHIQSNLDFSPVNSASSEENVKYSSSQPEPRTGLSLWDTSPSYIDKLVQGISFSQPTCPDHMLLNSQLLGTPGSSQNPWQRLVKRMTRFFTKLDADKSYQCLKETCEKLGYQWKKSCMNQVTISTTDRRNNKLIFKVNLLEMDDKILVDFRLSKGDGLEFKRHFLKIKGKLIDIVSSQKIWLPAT
pIC50: −log10 of the molar value.
outcome measure: pIC50

Query the reported pIC50 for Serine/threonine-protein kinase Chk1 (Homo sapiens, UniProt O14757); item: COC(=O)c1ccc2c(c1)NC(=O)/C2=C(\Nc1ccc(-n2c(C)ccc2CN2CCN(C)CC2)cc1)c1ccccc1
< 6.00

###

Experiment: Intrinsic clearance in mouse liver microsomes
Type: ADME, Microsome
Conditions: read-out: CLH
outcome measure: CLint scaled

Entry COC(=O)c1ccc2c(c1)NC(=O)/C2=C(\Nc1ccc(-n2c(C)ccc2CN2CCN(C)CC2)cc1)c1ccccc1 : reported CLint scaled = ?
436 mL/min/kg

###

Assay: Half life in human liver microsomes
Type: ADME, Microsome
outcome measure: half-life
Could you write the number and then its unit?

List reported half-life for each of these molecules:
1. COC(=O)c1ccc2c(c1)NC(=O)/C2=C(\Nc1ccc(N(C)C(=O)CN2CCN(C)CC2)cc1)c1ccccc1
2. COC(=O)c1ccc2c(c1)NC(=O)/C2=C(\Nc1ccc(-n2c(C)ccc2CN2CCN(C)CC2)cc1)c1ccccc1

27.4 min
21.2 min

###

Target: Mast/stem cell growth factor receptor Kit (Homo sapiens)
Sequence (P10721 whole entry): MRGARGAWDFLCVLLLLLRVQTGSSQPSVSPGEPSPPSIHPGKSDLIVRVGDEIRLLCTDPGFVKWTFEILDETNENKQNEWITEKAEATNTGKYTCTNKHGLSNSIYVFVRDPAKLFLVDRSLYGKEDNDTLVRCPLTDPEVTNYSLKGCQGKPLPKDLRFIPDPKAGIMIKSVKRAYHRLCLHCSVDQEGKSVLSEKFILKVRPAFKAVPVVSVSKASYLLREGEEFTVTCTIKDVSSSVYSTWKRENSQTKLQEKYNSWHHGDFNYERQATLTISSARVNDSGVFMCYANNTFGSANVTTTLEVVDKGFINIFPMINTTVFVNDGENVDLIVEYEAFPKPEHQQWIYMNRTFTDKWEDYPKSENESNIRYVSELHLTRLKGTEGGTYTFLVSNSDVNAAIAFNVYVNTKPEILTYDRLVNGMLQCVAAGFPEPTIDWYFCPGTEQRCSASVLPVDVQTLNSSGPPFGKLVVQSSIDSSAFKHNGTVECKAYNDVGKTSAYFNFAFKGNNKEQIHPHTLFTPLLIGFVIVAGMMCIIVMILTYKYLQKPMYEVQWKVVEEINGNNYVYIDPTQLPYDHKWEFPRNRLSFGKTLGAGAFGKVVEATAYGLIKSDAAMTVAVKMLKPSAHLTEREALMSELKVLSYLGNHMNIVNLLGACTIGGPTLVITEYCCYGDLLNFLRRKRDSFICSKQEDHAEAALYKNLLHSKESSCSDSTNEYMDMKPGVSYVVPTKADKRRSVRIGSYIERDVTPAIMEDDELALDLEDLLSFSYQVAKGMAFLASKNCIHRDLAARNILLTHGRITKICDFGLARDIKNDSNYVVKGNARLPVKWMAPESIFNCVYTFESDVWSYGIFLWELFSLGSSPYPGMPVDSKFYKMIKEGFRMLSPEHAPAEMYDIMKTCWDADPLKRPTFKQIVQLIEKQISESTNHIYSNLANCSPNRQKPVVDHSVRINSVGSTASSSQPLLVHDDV
outcome measure: pIC50
Answers are plain numbers, as −log10 of the molar value.

Consider the compound shown here: COC(=O)c1ccc2c(c1)NC(=O)/C2=C(\Nc1ccc(-n2c(C)ccc2CN2CCN(C)CC2)cc1)c1ccccc1 What is its recorded pIC50?
7.77

###

Molecular target: UniProt:P24941
Assign IC50 to each entry below.

line notation: COC(=O)c1ccc2c(c1)NC(=O)/C2=C(\Nc1ccc(N(C)C(=O)CN2CCN(C)CC2)cc1)c1ccccc1
IC50: > 1 µM

Continue with the molecule presented below.
// returns reported IC50 for input COC(=O)c1ccc2c(c1)NC(=O)/C2=C(\Nc1ccc(-n2c(C)ccc2CN2CCN(C)CC2)cc1)c1ccccc1
> 1 µM

###

Experiment: Inhibition of N-terminal GST-tagged human recombinant PDGFRalpha D842I mutant expressed in baculovirus-infected Sf9 cells using FAM-labeled peptide and ATP as substrate preincubated for 10 mins followed by substrate addition measured after 1 hr by mobility shift assay
outcome measure: IC50 (nM)
One number for each entry, in nM.

molecule: COC(=O)c1ccc2c(c1)NC(=O)/C2=C(\Nc1ccc(-n2c(C)ccc2CN2CCN(C)CC2)cc1)c1ccccc1
IC50 [nM]: 7

Request the reported IC50 associated with COC(=O)c1ccc2c(c1)NC(=O)/C2=C(\Nc1ccc(N(C)C(=O)CN2CCN(C)CC2)cc1)c1ccccc1 [NINTEDANIB]
1.9

###

Molecular target: Fibroblast growth factor receptor 1 (Homo sapiens, UniProt P11362)
Sequence (P11362 whole entry, the tested form may be a part): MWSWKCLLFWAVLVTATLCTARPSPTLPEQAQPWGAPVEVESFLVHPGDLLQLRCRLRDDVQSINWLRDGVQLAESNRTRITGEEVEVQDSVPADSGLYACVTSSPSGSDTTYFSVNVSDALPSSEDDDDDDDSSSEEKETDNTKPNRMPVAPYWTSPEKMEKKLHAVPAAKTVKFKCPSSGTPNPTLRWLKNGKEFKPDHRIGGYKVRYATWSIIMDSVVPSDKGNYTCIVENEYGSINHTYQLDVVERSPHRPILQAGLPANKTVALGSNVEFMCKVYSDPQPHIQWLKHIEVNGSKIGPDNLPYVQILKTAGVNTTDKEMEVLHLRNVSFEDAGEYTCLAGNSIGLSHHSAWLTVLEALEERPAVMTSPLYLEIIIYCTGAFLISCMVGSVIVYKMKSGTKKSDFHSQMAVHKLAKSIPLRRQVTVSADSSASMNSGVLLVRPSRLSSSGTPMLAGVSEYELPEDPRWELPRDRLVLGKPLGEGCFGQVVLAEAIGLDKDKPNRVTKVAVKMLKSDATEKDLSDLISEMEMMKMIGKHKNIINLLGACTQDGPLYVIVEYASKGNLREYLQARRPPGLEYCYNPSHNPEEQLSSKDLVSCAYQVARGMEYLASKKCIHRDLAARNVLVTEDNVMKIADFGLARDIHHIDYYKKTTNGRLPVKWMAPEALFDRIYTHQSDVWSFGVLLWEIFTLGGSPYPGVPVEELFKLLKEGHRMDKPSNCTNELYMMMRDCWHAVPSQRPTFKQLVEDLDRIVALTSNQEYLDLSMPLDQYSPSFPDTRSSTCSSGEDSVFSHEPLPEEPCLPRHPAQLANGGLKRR
Experiment: Inhibition of N-terminal GST fused human recombinant FGFR1 cytoplasmic domain (398 to 822 (end) residues) expressed in baculovirus expression system using FAM-labeled peptide and ATP as substrate preincubated for 10 mins followed by substrate addition measured after 1 hr by mobility shift assay
outcome measure: IC50

I am curious: what IC50 value has been reported for COC(=O)c1ccc2c(c1)NC(=O)/C2=C(\Nc1ccc(-n2c(C)ccc2CN2CCN(C)CC2)cc1)c1ccccc1 ?
23 nM

###

Target: Proto-oncogene tyrosine-protein kinase Src (Homo sapiens, UniProt P12931)
Sequence (P12931 2-536 limits assumed): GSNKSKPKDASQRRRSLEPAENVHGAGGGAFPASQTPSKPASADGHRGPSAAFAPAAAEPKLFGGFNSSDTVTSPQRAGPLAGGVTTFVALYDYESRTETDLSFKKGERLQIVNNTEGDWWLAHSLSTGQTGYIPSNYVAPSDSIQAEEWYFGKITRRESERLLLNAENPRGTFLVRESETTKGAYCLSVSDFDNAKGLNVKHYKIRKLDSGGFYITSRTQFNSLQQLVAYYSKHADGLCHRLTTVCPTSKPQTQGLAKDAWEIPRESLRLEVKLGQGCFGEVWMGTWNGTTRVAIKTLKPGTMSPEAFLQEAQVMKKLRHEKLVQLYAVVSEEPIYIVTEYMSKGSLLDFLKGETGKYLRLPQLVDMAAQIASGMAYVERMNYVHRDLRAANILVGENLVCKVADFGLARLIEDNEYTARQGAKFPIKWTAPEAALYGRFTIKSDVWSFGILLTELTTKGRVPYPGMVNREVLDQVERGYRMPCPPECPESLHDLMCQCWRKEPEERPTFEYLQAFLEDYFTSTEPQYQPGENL
outcome measure: pIC50
Numbers only, as −log10 of the molar value.

Checklist item: pIC50 tested on Proto-oncogene tyrosine-protein kinase Src (Homo sapiens, UniProt P12931), entry COC(=O)c1ccc2c(c1)NC(=O)/C2=C(\Nc1ccc(-n2c(C)ccc2CN2CCN(C)CC2)cc1)c1ccccc1 , value?
6.75
